# Test system: NCI/ADR-RES ovarian
# PROCEDURE DETAILS: NCI tumour cell line growth inhibition, 48 h; in the data active = GI50 below about 0.43 µM; inactive = the rest
Bench note: report the call from yes = active, no = inactive

Solved cases below.
COMPOUND | DISCRETE LABEL
CCCCCCCCN=C(N)c1ccc(N2CCN(c3ccc(C(N)=NCCCCCCCC)cc3)CC2)cc1 | no
COc1ccc(/C(C#N)=C/c2ccccc2OC)cc1 | no
COc1ccc(-c2csc(N(C(=O)N3CCN(c4cc5c(cc4F)c(=O)c(C(=O)O)cn5C4CC4)CC3)c3ccccc3)n2)cc1 | no
O=C(CCCCCCC(=O)Nc1ccc(N(CCCl)CCCl)cc1)NO | no

Task: Returns: the outcome recorded for `COc1cccc(-n2ncc3c(N/N=C/c4ccc(C(=O)NCCN(C)C)cc4)ncnc32)c1` in this assay.
Result: no

Task: Returns: the outcome recorded for `CN(C)CC(=O)Nc1ccc(Cn2nnc3c2C(=O)c2nnn(Cc4ccc(NC(=O)CN(C)C)cc4)c2C3=O)cc1` in this assay.
Result: no

Task: Returns: the outcome recorded for `CN1CCC(n2cnc(-c3ccc(F)cc3)c2-c2ccnc(NCCO)n2)CC1` in this assay.
Result: no

Task: Returns: the outcome recorded for `COc1cccc2c1c(C(=O)C(=O)Nc1cc(C)no1)cn2Cc1ccc(F)cc1` in this assay.
Result: no

====

# Tested on: NCI-H460 lung
# PROCEDURE DETAILS: NCI tumour cell line growth inhibition, 48 h
# reported TGI; entries follow
Please respond with the number in µM and leave the unit unwritten.

Example results:
COMPOUND | UNIT SYMBOL | TGI
CCN(CC)CCC(=O)c1ccc(Oc2ccc(Cl)cc2)cc1 | µM | 29.2
N=c1oc2c(Cl)cc(Cl)cc2cc1C(=O)Nc1cccc2ccccc12 | µM | 62.1
Cc1cc(N(CCCl)CCCl)ccc1C=Nc1ccc(-c2csc(Cc3ccccc3)n2)cc1 | µM | 23.6

Here is another compound to look at.
Task: Hello, please tell me recorded TGI for this one: CC(CCC(=O)O)[C@H]1CCC2[C@@H]3CC[C@@H]4CC(O)CC[C@]4(C)C3CC[C@@]21C (stereo not given in full)
Result: 97.4

====

# System: NCI-H226 lung
# PROCEDURE DETAILS: NCI tumour cell line growth inhibition, 48 h
VALUE TYPE: GI50

CPD SMILES | TARGET OF ASSAY | VALUE TYPE | RESULT
CC(C)c1cc(-c2n[nH]c(=O)n2-c2ccc3c(ccn3C)c2)c(O)cc1O | NCI-H226 lung | GI50 | 286 nM
CN(C)CCNc1c2c(c(NCCN(C)C)c3[nH]ccc13)C(=O)c1ccccc1C2=O | NCI-H226 lung | GI50 | 5030 nM
Cc1cc(N(CCCl)CCCl)ccc1C=Nc1ccc(-c2csc(Cc3ccccc3)n2)cc1 | NCI-H226 lung | GI50 | 596 nM
N=C(N)c1ccc(-c2ccc(-c3cc(Cl)cc(Cl)c3)o2)nc1 | NCI-H226 lung | GI50 | 2130 nM
O=C(O)/C=C\C(=O)N1C/C(=C\c2ccccc2Cl)C(=O)/C(=C/c2ccccc2Cl)C1 | NCI-H226 lung | GI50 | 1970 nM

Task: Hello, please tell me recorded GI50 for this one: `O=c1cc(-c2ccccc2)[nH]c2ccccc12`
Result: 7400 nM
